Biological target: T1, human FAP (Homo sapiens, UniProt Q12884)
T1 sequence (Q12884 1-760): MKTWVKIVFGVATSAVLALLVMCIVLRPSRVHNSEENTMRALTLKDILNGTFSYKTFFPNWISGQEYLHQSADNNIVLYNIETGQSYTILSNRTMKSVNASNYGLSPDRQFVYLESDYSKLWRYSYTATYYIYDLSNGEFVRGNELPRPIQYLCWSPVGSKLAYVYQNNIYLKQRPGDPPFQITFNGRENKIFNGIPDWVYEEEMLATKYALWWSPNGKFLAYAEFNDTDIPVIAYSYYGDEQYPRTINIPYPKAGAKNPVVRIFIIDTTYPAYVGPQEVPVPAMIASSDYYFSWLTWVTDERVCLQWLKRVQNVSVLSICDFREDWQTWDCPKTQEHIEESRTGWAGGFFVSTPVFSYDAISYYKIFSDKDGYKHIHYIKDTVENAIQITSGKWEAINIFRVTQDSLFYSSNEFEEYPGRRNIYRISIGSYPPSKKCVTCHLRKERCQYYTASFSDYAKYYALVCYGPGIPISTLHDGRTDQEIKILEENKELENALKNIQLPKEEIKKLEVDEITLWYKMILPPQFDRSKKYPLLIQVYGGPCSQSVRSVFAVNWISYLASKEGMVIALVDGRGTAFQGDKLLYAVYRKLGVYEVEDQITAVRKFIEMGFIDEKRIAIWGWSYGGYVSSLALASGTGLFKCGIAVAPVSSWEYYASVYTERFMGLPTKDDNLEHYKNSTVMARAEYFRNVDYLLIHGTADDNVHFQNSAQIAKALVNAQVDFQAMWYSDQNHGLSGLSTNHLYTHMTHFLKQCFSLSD
Assay: BLI click reaction with Tz-R3B23 on TCO-VHHs bound to target, span (Example 7, Table 18)
Settings: Experiment 2, 1st assay, click reaction with 50 nM Tz-R3B23 for 30 minutes, signal difference vs assay buffer
Method: Next, Octet Streptavidin (SA) Biosensors were coated with 5 μg/mL biotinylated human FAP in assay buffer (HBS+0.5% BSA+0.1% Tween20) for 5 minutes. […] In the second experiment the TCO-VHHs were measured in duplicate (referred to as assay 1 and 2 of ‘experiment 2’ in the table below). Using the epitope binning function of ‘Octet Analysis Software’ we then determined the difference in signal between the VHHs incubated with Tz-R3B23 and the VHHs incubated with assay buffer. […]
Listed below: Span values for each entry.

{"molecule": "VHH9: VHH, target FAP, SEQ ID NO 92 (protein) VHH: QVQLQESGGGLVQSGGSLRLSCVASGSISSINAMGWYRQAPGNKREWVAGITSGGSTNYADAVLGRFSIFRDNPKNTVYLQMNSLKPEDTAVYYCNTWPPSTFGSWGQGTQVTVSSAAAYPYDVPDYGSHHHHHH", "Span": "−0.0008"}
{"molecule": "VHH6: VHH, target FAP, SEQ ID NO 89 (protein) VHH: DVQLVESGGGLVQAGGSLRLSCAVSGSISSANSMGWYRQAPGKQRDVVAGLTTGGRSHYADSVKGRFTISRDNAKNTVYLQMNSLKAEDTAVYYCNLWPPVQGYWGQGTQVTVSS", "Span": 0.0017}
{"molecule": "VHH1: VHH, target FAP, SEQ ID NO 4 (protein, VHH1) VHH: DVQLVESGGGLVQPGGSLRLSCVASGRLSSSNSMAWYRQVPGKRRELVAGITGGGETNYADFVGGRFTISRDNAKNGLYLQLNGLKPEDTAAYYCNFWPPLINYWGQGTQVTVSS", "Span": 0.0004}
